B1: NF2 (merlin) isoform 7, human, full length (507 aa, lacks exons 2-3 = isoform-1 residues 39-121; exon-16 C-terminus), P35240-4 (parent)
chain: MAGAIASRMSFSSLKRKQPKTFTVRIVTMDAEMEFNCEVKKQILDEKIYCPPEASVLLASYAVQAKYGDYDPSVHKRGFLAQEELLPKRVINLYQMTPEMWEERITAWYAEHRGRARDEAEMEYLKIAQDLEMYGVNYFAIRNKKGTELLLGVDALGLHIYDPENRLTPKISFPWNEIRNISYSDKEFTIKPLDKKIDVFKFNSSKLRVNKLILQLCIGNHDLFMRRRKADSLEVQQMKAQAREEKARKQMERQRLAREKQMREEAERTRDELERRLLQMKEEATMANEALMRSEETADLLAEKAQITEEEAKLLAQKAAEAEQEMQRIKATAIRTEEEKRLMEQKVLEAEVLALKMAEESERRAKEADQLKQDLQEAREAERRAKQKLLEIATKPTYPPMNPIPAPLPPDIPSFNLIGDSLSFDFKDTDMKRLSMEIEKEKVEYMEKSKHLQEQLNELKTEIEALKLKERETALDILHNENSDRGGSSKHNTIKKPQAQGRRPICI

Variants of: B1
test_description: reverse yeast two-hybrid deep mutational scan (rY2H-seq): NF2 isoform 7 mutant library as bait mated with wild-type prey strains; selection on medium lacking adenine for non-interacting pairs; NextSeq paired-end sequencing; enrichment vs …
recorded_conditions: with PIK3R3 (phosphatidylinositol 3-kinase regulatory subunit gamma), Q92569; yeast diploids after mating (RBait_S3 x RPrey_S3), 30 °C, selection for reporter genes on NB agar; human tyrosine kinase ABL2 co-expressed as the active kinase …; HIGHER = WEAKER BINDING (the opposite of display enrichments): higher = stronger loss of interaction: reverse Y2H selects yeast in which bait and prey do NOT interact (growth without adenine), so a …; hits-only table; scale: rY2H score; numbering: uniprot, sequence starts at 1
enrichment values for the variants below.
Number only, no unit.

Worked examples, 8 variants total:
R166C	1.57
P396K	4.88
L216P	3.07
R115C	1.62
M357E	2.86
L149A	17.7
T394L	9.86
N165L	8.43

Now take the following variant into account.
Q) // lookup enrichment for I141C
A) 1.42

The origin of these recorded values is paper PMC10244618.
